FYI, the data here is from PubChem BioAssay (NCI).

System: SW-620 colon
Test: NCI-60 one-dose screen, 48 h
Details: 10 µM unless noted
Procedure: Growth inhibition of the SW-620 human tumor cell line is measured as a screen for anti-cancer activity. Cells are grown in 96 well plates and exposed to the test compound for 48 hours. Compounds are tested at a single concentration, which is 10^-5 M for most compounds. The reported endpoint is percent growth (GI% or GIPRCNT), where numbers from 0 - 100% represent growth inhibition, and numbers from -100% - 0 represent cell death. For example, a value of 40 represents 60% growth inhibition. […]
Compounds without any hit were thinned out: in the full panel of roughly 83,000, 20% have a hit. Active and inactive are the calls of the source. Rule for the calls: active = growth percent below 10; inactive = the rest.
Permitted responses: active, inactive

// known answers, use as guide
INSERT INTO assay_data (molecule, group_label) VALUES
  ('O=c1c2cccc(Cl)c2sc2c(NCCCNCCO)nc3ccccc3c12', 'active'),
  ('COc1cccc2nc3n(c12)C(c1c(F)cccc1F)SC3 (configuration not stated)', 'inactive'),
  ('CC(=O)OC[C@H]1OC(Sc2sc(C(=O)c3ccc(Cl)cc3)c(N)c2-c2nc3ccccc3s2)[C@H](OC(C)=O)[C@@H](OC(C)=O)[C@@H]1OC(C)=O (some centres not stated)', 'inactive'),
  ('COc1cccc(/C=C2\C=C(c3ccccc3)N(Cc3ccccc3)C2=O)c1', 'inactive'),
  ('O=C(Oc1cccc2ccccc12)Oc1cccc2ccccc12', 'inactive'),
  ('CN1CCN(c2ccc(-c3ccc4ncc(C#N)c(Nc5ccc(F)c(Cl)c5)c4c3)cn2)CC1', 'inactive'),
  ('C/C(=N/NC(N)=S)c1sc(Nc2cccc(Cl)c2)nc1C', 'inactive'),
  ('Cn1cc(-c2ccc3cc(-c4ccc(CC(=O)Nc5cc(C(C)(C)C)nn5C)cc4)cnc3c2)cn1', 'inactive'),
  ('C#Cc1cccc(NC(=O)c2ccc(NC(=O)C=C)cc2)c1', 'inactive'),
  ('O=C(Nc1ccc(Cl)cc1F)c1ccccc1O', 'inactive');

Req: For "Oc1ccc(C#CCOc2ccccc2)cc1CNCCN(Cc1ccccn1)Cc1ccccn1" , which call appears in the assay record?
Resp: inactive

Req: What about this molecule? "COC(=O)CCC/C=C\C[C@H]1C=CC(=O)/C1=C/C[C@@H](O)CCc1cccc(C(F)(F)F)c1"
Resp: active
